# Tgt: Luciferin 4-monooxygenase (Photinus pyralis)
# Assay name: qHTS assay to identify small molecule inhibitors of firefly luciferase (AID 1224835); further: nearly all actives have a fitted effect of over 25% in size
# Experimental parameters: purified P. pyralis luciferase, luminescence inhibition; series mostly up to 115 µM
Results filed as inconclusive are left out. Active and inactive are the calls of the source. The call rests on the fitted dose curve; in most records, active means well fitted inhibition curve with a large enough effect in the repeat runs; inconclusive means weak or mixed curves; inactive means flat fitted curve, though single readings scatter.
Log the outcome using a class from Y for active, N for inactive

O=C=Nc1ccc(Cc2ccc(N=C=O)cc2)cc1 | N

**Query** Returns: the outcome recorded for CCCCc1oc2ccccc2c1C(=O)c1cc(I)c(OCCN(CC)CC)c(I)c1 in this assay.
**Result** N

**Query** Just curious, what result did CCOCCOCCO get here?
**Result** N

**Query** Dear all, I need the recorded test outcome for CC(CCC(=O)O)(c1ccc(O)cc1)c1ccc(O)cc1 , thank you.
**Result** N

----------
# Assay name: qHTS assay for small molecule disruptors of the mitochondrial membrane potential - cell viability (AID 720634);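 further: human HepG2 liver cancer cells; nearly all actives have a fitted effect of over 20% in size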
# Experimental parameters: HepG2 viability, ATP luminescence (CellTiter-Glo), 1 h; series mostly up to 83.2 µM
Inconclusive results are not listed. The source made the active and inactive calls. Calls follow the shape of the full dose curve.
Outcome (select one): 1 = active, -1 = inactive

Consider the following illustrative entries.
NNc1ccc(C(=O)O)cc1 | -1
O=C1OC2(c3cc(Br)c(O)c(Br)c3Oc3c2cc(Br)c(O)c3Br)c2c(Cl)c(Cl)c(Cl)c(Cl)c21 | -1
CN(C)CCC=C1c2ccccc2CCc2ccccc21 | -1
CCCCCCCCCCCO | -1
CCCC(=O)O | -1
Cc1cc2nc3c(=O)[nH]c(=O)nc-3n(C[C@H](O)[C@H](O)[C@H](O)CO)c2cc1C | -1
COc1cc([C@@H]2c3cc4c(cc3[C@H](O)[C@H]3COC(=O)[C@H]23)OCO4)cc(OC)c1OC | -1
O=CCc1ccccc1 | -1
CN(C)c1nc(N(C)C)nc(N(C)C)n1 | -1
CC(C)=CCC/C(C)=C\CO | -1

**Query** Lab log entry: Cc1c(OCC(F)(F)F)ccnc1CS(=O)c1nc2ccccc2[nH]1 (centres undefined) — outcome as called in the assay?
**Result** -1

**Query** Lab log entry: O=Cc1ccccc1O — outcome as called in the assay?
**Result** -1

**Query** Given Cc1ccc(C)c(O)c1C , state the outcome it received in this test.
**Result** -1

**Query** State the result this test recorded for C[Si](C)(C)O[Si](C)(C)C .
**Result** -1

----------
# Tgt: Peroxisome proliferator-activated receptor gamma (Homo sapiens) (UniProt P37231)
# Sequence (P37231 whole entry, looked up): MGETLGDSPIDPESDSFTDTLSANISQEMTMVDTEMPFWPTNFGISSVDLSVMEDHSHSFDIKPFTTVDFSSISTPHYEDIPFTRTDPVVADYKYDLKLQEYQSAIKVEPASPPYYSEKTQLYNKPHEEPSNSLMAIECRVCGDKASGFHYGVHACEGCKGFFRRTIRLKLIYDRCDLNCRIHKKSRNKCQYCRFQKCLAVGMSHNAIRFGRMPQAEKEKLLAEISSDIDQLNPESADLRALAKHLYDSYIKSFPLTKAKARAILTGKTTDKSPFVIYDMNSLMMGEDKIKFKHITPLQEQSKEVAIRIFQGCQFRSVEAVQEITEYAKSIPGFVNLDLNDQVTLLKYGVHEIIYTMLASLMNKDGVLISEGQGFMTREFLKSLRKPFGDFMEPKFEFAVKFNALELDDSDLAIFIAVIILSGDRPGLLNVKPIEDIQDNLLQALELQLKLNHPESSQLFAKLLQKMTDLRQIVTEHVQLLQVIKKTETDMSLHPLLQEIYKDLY
# Assay name: qHTS assay to identify small molecule antagonists of the peroxisome proliferator-activated receptor gamma (PPARg) signaling pathway (AID 743191); further: nearly all actives have a fitted effect of over 30% in size
# Experimental parameters: HEK293H PPARg-UAS-bla, beta-lactamase ratio, antagonist, 17 h; series mostly up to 62.6 µM
Inconclusive results are not listed. Activity calls are given as the source filed them. The call rests on the fitted dose curve.
Could you please pick one outcome from this set? TRUE (active), FALSE (inactive)

O=C1c2cccc(O)c2C(=O)c2c(O)cccc21 | FALSE
CCOCCOCCO | FALSE
Brc1cc(Oc2cc(Br)c(Br)c(Br)c2Br)c(Br)c(Br)c1Br | FALSE
CCCCC(CC)COCC1CO1 (centres undefined) | FALSE
CCCCC(CC)COC(=O)c1ccc(N(C)C)cc1 (centres undefined) | FALSE
O=S(=O)(O)c1ccc(O)cc1 | FALSE
CC1=CC2C3CC(C=C3C)C2C1 (centres undefined) | FALSE
O=Cc1ccccc1O | FALSE

**Query** Recorded test outcome, item Clc1nc(Cl)c(Cl)c(Cl)c1Cl
**Result** FALSE

**Query** Dear all, I need the recorded test outcome for CCC(C)c1ccccc1O (centres undefined) , thank you.
**Result** FALSE

**Query** Lab log entry: CN(C)CCN(Cc1cccs1)c1ccccn1 — outcome as called in the assay?
**Result** FALSE

**Query** Lab log entry: CN1C(C(=O)Nc2ccccn2)=C(O)c2ccccc2S1(=O)=O — outcome as called in the assay?
**Result** FALSE

**Query** Short answer needed: outcome of this test for CNCCCC12CCC(c3ccccc31)c1ccccc12 ?
**Result** TRUE
